Just for reference, ChEMBL document CHEMBL1201862 is where these values come from.

System: A498
Experiment: NCI tumour cell line growth inhibition, 48 h
Activity calls are given as the source filed them. Cut-off read from the data, not from the text of the source: active = GI50 up to about 1.1 µM and inactive = higher.
quantity: GI50

Use the examples below as a reference point.
> print(dat)
                                   compound  experimental.system  quantity       value.observed
1  COc1cccc2ccc3c(c12)C(=O)OC31CCc2c(C)cccc21 (stereo not drawn)                 A498      GI50   7.41 µM (inactive)
2       O=C1O/C(=C\c2ccccc2)N(c2ccccc2)C1=O                 A498      GI50  > 100 µM (inactive)
3          CN(C)CN(C)c1nc(N(C)C)nc(N(C)C)n1                 A498      GI50  > 100 µM (inactive)

[in] // GI50 lookup, key: `C/C(Cl)=N/OC(=O)Nc1ccc(S(N)(=O)=O)c(C)c1`
[out] 18.2 µM (inactive)

[in] Which measured GI50 value corresponds to `C[C@]12CC[C@H]3[C@@H](CCC4=CC(=O)CC[C@@]43C)[C@]1(O)CC[C@]2(O)C(=O)CO` ?
[out] > 100 µM (inactive)

[in] What value of GI50 has been recorded for this entry: O=C1CC(Nc2ccccc2)c2c(Cl)sc(Cl)c21 (stereo not drawn)
[out] 2.5 µM (inactive)

[in] Dear colleague, I am looking for the recorded GI50 of the following compound: `O=C1C(Cl)=C(N2CCN(c3ccccn3)CC2)C(=O)c2c(O)ccc(O)c21`
[out] 4.25 µM (inactive)

[in] Look up GI50: Nc1ncnc2c1nc(-c1ccccc1)n2C1OC(CO)C(O)C1O (stereo not drawn)
[out] > 100 µM (inactive)
